# key: entry, value: MEAN CORPUSCULAR HEMOGLOBIN CONCENTRATION
species: Rattus norvegicus; assay: DrugMatrix - Regimen: Daily Repeat; assay type: toxicity, organism-based, Sprague-Dawley; set-up: regimen Daily Repeat, gender Male, age 6-8 weeks; details: in vivo, po, 0 mg/kg, 72 h, tissue Blood, route oral GAVAGE, dose level Control, time 3 day, vehicle 100 % WATER
Numeric only. Scale: G/DL

INSERT INTO assay_data (compound, number) VALUES
  ('Cc1ncc([N+](=O)[O-])n1CCO', 39.15),
  ('ClC(Cl)Cl [CHLOROFORM]', 39.15),
  ('C[N+](C)(C)CCO.[Cl-] [CHOLINE CHLORIDE]', 40.08),
  ('COc1cc2ncnc(Nc3ccc(F)c(Cl)c3)c2cc1OCCCN1CCOCC1', 30.62),
  ('CC(C)NCC(O)COc1cccc2ccccc12 (stereo not drawn)', 37.57);

Give the measured MEAN CORPUSCULAR HEMOGLOBIN CONCENTRATION for Nc1ccn([C@@H]2CS[C@H](CO)O2)c(=O)n1
38.63

Note MEAN CORPUSCULAR HEMOGLOBIN CONCENTRATION for the compound shown: COC(=O)C1=C(C)NC(C)=C(C(=O)OCC(C)C)C1c1ccccc1[N+](=O)[O-] (stereo not drawn)
39.03

Using known records, supply MEAN CORPUSCULAR HEMOGLOBIN CONCENTRATION for CC(C)C[C@H](NC(=O)[C@@H](O)[C@H](N)Cc1ccccc1)C(=O)O
39.53

====

species on record: Rattus norvegicus; assay: DrugMatrix - Regimen: Daily Repeat; type: toxicity, organism-based, Sprague-Dawley; set-up: regimen Daily Repeat, gender Male, age 6-8 weeks; conditions: in vivo, po, 1500 mg/kg, 72 h, tissue Plasma, route oral GAVAGE, dose level High, time 3 day, vehicle .5 % CMC
# Lookup of reported CREATINE PHOSPHOKINASE keyed by entry
State just the number; it will be interpreted in u/L.

A selection of reference data follows.
INSERT INTO results (molecule, result_unit, number) VALUES
  ('C[C@]1(Cn2ccnn2)[C@H](C(=O)O)N2C(=O)C[C@H]2S1(=O)=O', 'u/L', 209.33),
  ('CO[C@H]1/C=C/O[C@@]2(C)Oc3c(C)c(O)c4c(c3C2=O)C2=NC3(CCN(CC(C)C)CC3)NC2=C(NC(=O)/C(C)=C\C=C\[C@H](C)[C@H](O)[C@@H](C)[C@@H](O)[C@@H](C)[C@H](OC(C)=O)[C@@H]1C)C4=O', 'u/L', 217),
  ('Cc1ccc(S(=O)(=O)NC(=O)NN2CC3CCCC3C2)cc1 (centres undefined) [GLICLAZIDE]', 'u/L', 319);

Lab note: next molecule to report on.
Please indicate CREATINE PHOSPHOKINASE recorded for CNC(=C[N+](=O)[O-])NCCSCc1ccc(CN(C)C)o1
268.67

====

species: Rattus norvegicus; assay: DrugMatrix - Regimen: Daily Repeat; assay type: toxicity, organism-based, Sprague-Dawley; parameters: regimen Daily Repeat, gender Male, age 6-8 weeks; details: in vivo, po, 1500 mg/kg, 120 h, tissue Blood, route oral GAVAGE, dose level High, time 5 day, vehicle .5 % CMC
Recorded MEAN CORPUSCULAR HEMOGLOBIN by entry
# number only, unit pg dropped from output

Field: example entries. Status: answers known.
INSERT INTO results (item_smiles, result_unit, number) VALUES
  ('C[C@]1(Cn2ccnn2)[C@H](C(=O)O)N2C(=O)C[C@H]2S1(=O)=O', 'pg', 24.47),
  ('CNC(=C[N+](=O)[O-])NCCSCc1ccc(CN(C)C)o1', 'pg', 24.8);

Consider the record given below.
// fetch MEAN CORPUSCULAR HEMOGLOBIN given entry O=C(N[C@H](CO)[C@H](O)c1ccc([N+](=O)[O-])cc1)C(Cl)Cl
25.07
